# System: HEK-CMV-Luc2-Hygro cells
# measurement-description: High-throughput genome-wide siRNA screen and validation screen for luciferase expression
# Assay type: cell-based, human
# condition-parameters: Table 4; primary screen, 72 h, negative control = 100%
The substances listed here are annotated with their Viable cell density (%).
Numeric only. Scale: %

The following substances have reported results that may help.
116 (UGGUCUCAAUGACAGUAGATT; chemistry not given here; listed as Homo sapiens) [compound 116]    53.645
165 (AGGUCAAUGUGACUUUCCATT; chemistry not given here; listed as Homo sapiens) [compound 165]    105.029
159 (GGAGUUCUUUGAUGAGAAATT; chemistry not given here; listed as Homo sapiens) [compound 159]    96.357
202 (GGAUGACGAGCUGAACUUUTT; chemistry not given here; listed as Homo sapiens) [compound 202]    113.437
97 (GAUGAAGAAUGAUAAGUCATT; chemistry not given here; listed as Homo sapiens) [compound 97]    96.599

For the next question, use this substance.
Suppose we examine the substance 120 (GGAUCAUGCUAAAAGGAGATT; chemistry not given here; listed as Homo sapiens) [compound 120] ; what Viable cell density (%) value has been reported?
54.945

###

In this section we review reported VIA values for a set of substances.
# Tested on: HEK-CMV-Luc2-Hygro cells
# measurement-description: High-throughput genome-wide siRNA screen and validation screen for luciferase expression
# Type: cell-based, human
# condition-parameters: Table 3; viable cell density as % of negative control, primary screen, 72 h
# answer = number (no unit)

Some substances with known VIA results, for comparison:
80 (CAAUGAUUCUUACCCUCAATT; chemistry not given here; listed as Homo sapiens) [compound 80]    77.17
50 (GGAGGAAUCUCGAAUGCGATT; chemistry not given here; listed as Homo sapiens) [compound 50]    96
79 (AAGUCAACAUAGCCCGAAATT; chemistry not given here; listed as Homo sapiens) [compound 79]    111.5

Which measured VIA belongs to 65 (GCCUAGGAGUUAUCCUCUATT; chemistry not given here; listed as Homo sapiens) [compound 65] , tested on HEK-CMV-Luc2-Hygro cells?
112.2

Next substance: 84 (GGCUGUACAUAGUCCUUUUTT; chemistry not given here; listed as Homo sapiens) [compound 84]
66.39

###

# Test system: T-REx-293-NTSR1-GFP cells
# measurement-description: High-throughput human miRNA mimic library screen, image-based per cell green fluorescence (NTSR1-GFP expression)
# condition-parameters: per cell green fluorescence intensity
Listing of entries alongside the reported Signal relative to negative control (%).
Please respond with the number in % and leave the unit unwritten.

Solved entries:
CUGUGCGUGUGACAGCGGCUGA [miR-210-3p]    183
UGAGUGCCGGUGCCUGCCCUG (listed as RNA, chemistry not given here; listed as Homo sapiens) [miR-1909-5p, human miRNA mimic]    169
UGGUUGUAGUCCGUGCGAGAAUA (listed as RNA, chemistry not given here; listed as Homo sapiens) [miR-1974, human miRNA mimic]    201
GUGUGUGGAAAUGCUUCUGC (listed as RNA, chemistry not given here; listed as Homo sapiens) [miR-147a, human miRNA mimic]    168

Look up Signal relative to negative control (%): AACUGGCCCUCAAAGUCCCGCU (listed as RNA, chemistry not given here; listed as Homo sapiens) [miR-193b-3p, human miRNA mimic]
166

###

# Test system: HEK-CMV-Luc2-Hygro cells
# measurement-description: High-throughput genome-wide siRNA screen and validation screen for luciferase expression
# Assay type: cell-based, human
# condition-parameters: Table 4; primary screen, 72 h, negative control = 100%
Item-by-item account of Viable cell density (%)

160 (GGACCAAGCCCUAAAGGAATT; chemistry not given here; listed as Homo sapiens) [compound 160]    68.989%
156 (GAUUAUCCUUGUACUUUGATT; chemistry not given here; listed as Homo sapiens) [compound 156]    101.904%

Next item in the queue.
Entry 191 (GCCCACUAUUCUCAGCUCATT; chemistry not given here; listed as Homo sapiens) [compound 191] has what Viable cell density (%)?
66.121%

###

Below: a set of entries, each annotated with reported per_cell.
# Test system: HEK-CMV-Luc2-Hygro cells
# measurement-description: High-throughput genome-wide siRNA screen and validation screen for luciferase expression
# Type: cell-based, human
# condition-parameters: Table 3; per cell luciferase yield relative to negative control, primary screen, 72 h
No unit in the answer, only the number.

87 (GGUGUAAUAAUGUCCUUUATT; chemistry not given here; listed as Homo sapiens) [compound 87]    188.1

// lookup per_cell | system=HEK-CMV-Luc2-Hygro cells | key= 59 (AGAUCUUUGUCAAGGUGUATT; chemistry not given here; listed as Homo sapiens) [compound 59]
153.4

// repeat for 52 (GGAAGAACGUCUUGCACAATT; chemistry not given here; listed as Homo sapiens) [compound 52] and report
183.1

Param item: 80 (CAAUGAUUCUUACCCUCAATT; chemistry not given here; listed as Homo sapiens) [compound 80]
257.9

And 50 (GGAGGAAUCUCGAAUGCGATT; chemistry not given here; listed as Homo sapiens) [compound 50] ?
173.3

// next record 79 (AAGUCAACAUAGCCCGAAATT; chemistry not given here; listed as Homo sapiens) [compound 79]
145.7

Try this substance too: 63 (CCUGGACAGUUUGAAGCAATT; chemistry not given here; listed as Homo sapiens) [compound 63]
174.9

Next substance up: 39 (CGCUUUAACUGGAAGCUCUTT; chemistry not given here; listed as Homo sapiens) [compound 39]
147

What do we get for 68 (CAGGUAGUGUAAGCCCUCATT; chemistry not given here; listed as Homo sapiens) [compound 68] ?
303

Query 90 (GGUGCUCUCGGUUGCACAATT; chemistry not given here; listed as Homo sapiens) [compound 90] next
187.4

Could you do the same for 65 (GCCUAGGAGUUAUCCUCUATT; chemistry not given here; listed as Homo sapiens) [compound 65] , please?
137.6

Entry 74 (CUUCGACAGUACUUCCGGATT; chemistry not given here; listed as Homo sapiens) [compound 74] please
161.6

What do we get for 40 (CGAUGUUCGUGGACAUUCUTT; chemistry not given here; listed as Homo sapiens) [compound 40] ?
234.6

Another substance to check: 77 (CAAUGGAACAAUCAAAGUUTT; chemistry not given here; listed as Homo sapiens) [compound 77]
180.8

###

# System: T-REx-293-NTSR1-GFP cells
# measurement-description: High-throughput human miRNA mimic library screen, image-based per cell green fluorescence (NTSR1-GFP expression)
# condition-parameters: per cell green fluorescence intensity
measured-quantity: Signal relative to negative control (%)
Give just the numeric value; % need not be written.

Look up Signal relative to negative control (%): UGAGGUAGUAGGUUGUAUGGUU (listed as RNA, chemistry not given here; listed as Homo sapiens) [let-7c-5p, human miRNA mimic]
168

And the next one, ACAGAUUCGAUUCUAGGGGAAU (listed as RNA, chemistry not given here; listed as Homo sapiens) [miR-10b-3p, human miRNA mimic] ?
162

And the next one, CACUGGCUCCUUUCUGGGUAGA (listed as RNA, chemistry not given here; listed as Homo sapiens) [miR-892b, human miRNA mimic] ?
201

Subsequent entry: CUGCCAAUUCCAUAGGUCACAG (listed as RNA, chemistry not given here; listed as Homo sapiens) [miR-192-3p, human miRNA mimic]
148

Can you check AAGCUGCCAGUUGAAGAACUGU (listed as RNA, chemistry not given here; listed as Homo sapiens) [miR-22-3p, human miRNA mimic] next?
158

###

# Test system: HEK-CMV-Luc2-Hygro cells
# measurement-description: High-throughput genome-wide siRNA screen and validation screen for luciferase expression
# Assay type: cell-based, human
# condition-parameters: Table 6; polyamine pathway gene siRNAs
# Description: The Silencer Select™ Human genome siRNA library (Ambion), which targets 21,585 human genes with 3 siRNAs per gene, was used for screening. Each siRNA is arrayed in an individual well (Corning 3570, 384 well, white, solid bottom plates). […] All plates were incubated at room temperature for 20 minutes to stabilize the luminescent signal and the signal was then measured with PerkinElmer Envision 2104 Multilabel™ plate reader. […]
Below, each entry is listed alongside its reported Luciferase activity (%).
The answer consists of two parts: a number and, after it, its unit.

Which measured Luciferase activity (%) value corresponds to 214 (CCGUAGACUCGCUCAUCUCTT; chemistry not given here; listed as Homo sapiens) [compound 214] ?
174.4%

Subsequent entry: 217 (ACAUCGUCCACUUCCAGUATT; chemistry not given here; listed as Homo sapiens) [compound 217]
97.4%

What would you report for 224 (GCAUGUAUCUGCUUGAUAUTT; chemistry not given here; listed as Homo sapiens) [compound 224] ?
20.0%
